Hello, the source for this data is patent US20260242735A1, in case you need it.

biological target: human CD33 W22G (human, UniProt P20138 18-364); experiment: flow cytometry, mutant on cells, IgG
Sequence (P20138 18-364 W22G limits assumed): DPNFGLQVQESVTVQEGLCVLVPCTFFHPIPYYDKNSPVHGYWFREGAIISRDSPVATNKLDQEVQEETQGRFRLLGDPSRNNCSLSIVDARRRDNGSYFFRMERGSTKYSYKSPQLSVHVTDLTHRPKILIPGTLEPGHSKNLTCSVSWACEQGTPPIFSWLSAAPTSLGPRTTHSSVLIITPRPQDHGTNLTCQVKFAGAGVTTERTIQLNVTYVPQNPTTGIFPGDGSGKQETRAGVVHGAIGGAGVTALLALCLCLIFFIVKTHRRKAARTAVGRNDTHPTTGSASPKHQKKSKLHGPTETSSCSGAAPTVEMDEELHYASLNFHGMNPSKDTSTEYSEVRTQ
MEASURED METRIC: Mean % WT Binding

Use these answered entries as a reference point.
{"BINDER": "Refmab #4 (antibody, human IgG1, V domains shown, Tested in IgG format; human IgG1 Fc silent (PG-LALA)) VH: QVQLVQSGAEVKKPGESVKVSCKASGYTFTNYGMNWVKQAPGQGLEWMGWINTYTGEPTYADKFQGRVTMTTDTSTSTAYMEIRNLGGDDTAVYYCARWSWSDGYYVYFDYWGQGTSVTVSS VL: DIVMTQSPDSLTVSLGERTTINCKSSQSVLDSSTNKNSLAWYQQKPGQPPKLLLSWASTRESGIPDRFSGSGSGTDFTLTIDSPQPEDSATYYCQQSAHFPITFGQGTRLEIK", "RESULT": "105 % WT binding"}
{"BINDER": "Refmab #1 (antibody, human IgG1, V domains shown, Tested in IgG format; human IgG1 (Absolute Antibody hP67.6, Cat. No. Ab00283-10.0); also called hP67.6) VH: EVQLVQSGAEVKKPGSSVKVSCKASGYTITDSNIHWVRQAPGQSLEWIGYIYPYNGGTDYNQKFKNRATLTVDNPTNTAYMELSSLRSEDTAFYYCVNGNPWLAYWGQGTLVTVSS VL: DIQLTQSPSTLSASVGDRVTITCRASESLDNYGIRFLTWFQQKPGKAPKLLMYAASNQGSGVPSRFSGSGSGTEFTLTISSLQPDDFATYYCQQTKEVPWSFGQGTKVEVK", "RESULT": "89.6 % WT binding"}
{"BINDER": "Refmab #3 (antibody, human IgG1, V domains shown, Tested in IgG format; human IgG1 Fc silent (PG-LALA)) VH: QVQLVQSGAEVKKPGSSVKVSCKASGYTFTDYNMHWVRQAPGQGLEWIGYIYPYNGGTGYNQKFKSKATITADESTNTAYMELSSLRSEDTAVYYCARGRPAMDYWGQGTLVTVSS VL: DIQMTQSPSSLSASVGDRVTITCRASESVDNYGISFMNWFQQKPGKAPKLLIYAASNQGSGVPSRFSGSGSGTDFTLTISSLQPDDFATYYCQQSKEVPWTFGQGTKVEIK", "RESULT": "9 % WT binding"}

Now, please, on to the next binder.
Input Refmab #2 (antibody, human IgG1, V domains shown, Tested in IgG format; human IgG1 Fc silent (PG-LALA)) VH: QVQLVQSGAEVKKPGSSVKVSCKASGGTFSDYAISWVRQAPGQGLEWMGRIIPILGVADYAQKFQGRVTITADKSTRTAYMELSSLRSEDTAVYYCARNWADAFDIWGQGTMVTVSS VL: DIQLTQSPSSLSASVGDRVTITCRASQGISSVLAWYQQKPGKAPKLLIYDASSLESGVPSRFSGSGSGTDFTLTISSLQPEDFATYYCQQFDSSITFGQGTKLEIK . Output Mean % WT Binding: 113 % WT binding
